Test system: Staphylococcus aureus
ASSAY NAME: Minimum inhibitory activity against Staphylococcus aureus ATCC 6538P
Assay type: functional
For each of the compounds below, state its MIC.
Report as a plain number; the unit µg/mL is understood.

Q: Quick one: MIC of CC[C@H]1OC(=O)[C@H](C)[C@@H](O[C@H]2C[C@@](C)(OC)[C@@H](O)[C@H](C)O2)[C@H](C)[C@@H](O[C@@H]2O[C@H](C)C[C@H](N(C)C)[C@H]2O)[C@](C)(O)C[C@@H](C)C(=O)[C@H](C)[C@@H](O)[C@]1(C)O ?
Ans: 0.2

Q: Quick one: MIC of CC[C@H]1OC(=O)[C@H](C)[C@@H](OC(=O)N2C(=O)OC[C@@H]2C)[C@H](C)[C@@H](OC2O[C@H](C)C[C@H](N(C)CC3CC3)[C@H]2O)[C@@](C)(OC)C[C@@H](C)C(=O)[C@H](C)[C@H]2N(CCc3ccc(Cl)cc3)C(=O)O[C@]12C (stereo partly drawn) ?
Ans: 100

Source: ChEMBL document CHEMBL1147642
